experiment: Peroxynitrite (ONOO−) scavenging activity; settings: at 5 µM
test-readout: ONOO− Inhibition (%), Mean ± SD
# output: bare number, implied unit %

molecule: O=c1cc(-c2ccc(O)c(O)c2)oc2cc(O)cc(O[C@@H]3O[C@H](CO)[C@@H](O)[C@H](O)[C@H]3O)c12 [Luteolin 5-O-β-D-glucopyranoside, luteolin 5-O-β-D-glucopyranoside]
test-readout: ONOO− Inhibition (%), Mean ± SD
number: 79.23
//
molecule: O=c1cc(-c2ccc(O)c(O)c2)oc2cc(O)cc(O)c12
test-readout: ONOO− Inhibition (%), Mean ± SD
number: 85.21
//
molecule: CC(C)(S)[C@@H](N)C(=O)O [Penicillamine, penicillamine, reference compound]
test-readout: ONOO− Inhibition (%), Mean ± SD
number: 56.57

// moving on: another record for ONOO− Inhibition (%), Mean ± SD
Qu. Quick one: ONOO− Inhibition (%), Mean ± SD for O=c1cc(-c2ccc(O)c(O)c2)oc2cc(O[C@@H]3O[C@H](CO)[C@@H](O)[C@H](O)[C@H]3O)cc(O)c12 [Luteolin 7-O-β-D-glucopyranoside, luteolin 7-O-β-D-glucopyranoside] ?
Ans. 80.23
